assay: In vitro stability in heparinised human plasma; assay type: in vitro ADME; conditions: read-out: half life in plasma
parameter: half-life at 0.1 mg/ml

In [3]: df
Out[3]:
                                  substance  endpoint_result
0  Ac-RYYRWKKKKKKK-NH2 [Compound 1, Ac-RYYRWKKKKKKK-NH2]           > 16 h

We next turn to a different substance, shown below.
query: # half-life at 0.1 mg/ml lookup, item Ac-RYYRWK-NH2 [Compound CE1, Ac-Arg-Tyr-Tyr-Arg-Trp-Lys-NH2, reference compound]
result: < 1 h

----------
test: In vitro stability in heparinised human plasma; format: in vitro ADME; details: 37° C., mean (n=3) +/− deviation, read-out: T1/2 in min (degradation in human heparinised plasma)
parameter: half-life at 0.1 mg/ml (h)
// units = h; emit number, no label

                                  substance               parameter  endpoint_result
0  Ac-RYYRWK-NH2 [Compound CE1, Ac-Arg-Tyr-Tyr-Arg-Trp-Lys-NH2, reference compound]  half-life at 0.1 mg/ml            0.845

We next turn to a different substance, shown below.
query: # half-life at 0.1 mg/ml lookup, item Ac-RYYRWKKKKKKK-NH2 [Compound 1, Ac-RYYRWKKKKKKK-NH2]
result: 16.2
